Provide the reported glycan array binding signal (z-score) of each item.
- STUDY SYSTEM: Fuc(a1-2)Gal(b1-3)[Fuc(a1-4)]GlcNAc
- TEST NAME: glycan array binding signal (z-score within array); higher = stronger binding
- EXPERIMENTAL PARAMETERS: glycan notation: IUPAC condensed, linker removed
This excerpt belongs to a sample that is enriched for the strongest signals.
Note: the reply should be a number with no unit written.

Consider SCA (Schizophyllum commune) (protein) MGIDQGVYLITNAGSGTAATLKDGYVKGWERIKGKEQLNQLWFVKSVKTSASDPGYAAFNLATNKVLDLEKGLADRGTPILGWDYHEGDNQHWVIKKQADGKYYKIQSVKTQTFVDLNNGGKDNGTKIQGWVGSWDETNSHQRWVFNQFSATGSRIKSILDTHPKIHGKVIVEWPDRIYFTPDQYIFEAIWAKTGLADIKPRDPLFQSEAYEKVFKGWVVSRAQEIIKVDGFDILVGSLSLVEKSTQKIKVLDVSVRTSDDKSPDLSQIVFFDPESGRTLVDIPEGYEVNSVII . Its measured glycan array binding signal (z-score) is -0.163

Measured glycan array binding signal (z-score), EULS2 M2 (Oryza sativa) (protein) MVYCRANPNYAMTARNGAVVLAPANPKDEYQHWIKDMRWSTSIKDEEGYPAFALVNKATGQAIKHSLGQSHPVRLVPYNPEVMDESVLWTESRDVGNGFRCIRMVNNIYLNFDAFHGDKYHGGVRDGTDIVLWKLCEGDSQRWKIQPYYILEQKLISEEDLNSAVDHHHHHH : 0.051
